# Study target: Steryl-sulfatase (Homo sapiens)
# Experiment notes: Inhibition of human steroid sulfatase using 4-methylumbelliferyl sulfate substrate at 50 uM by fluorescence assay
Measure name: inhibition (%)

1) C[C@]12CC[C@@H]3c4ccc(O)c(N)c4CC[C@H]3[C@@H]1CC[C@@H]2O ... 43
2) C[C@]12CC[C@@H]3c4ccc(O)c(CO)c4CC[C@H]3[C@@H]1CCC2=O ... 46

1. C=Cc1c(O)ccc2c1CC[C@@H]1[C@@H]2CC[C@]2(C)C(=O)CC[C@@H]12
2. C[C@]12CC[C@@H]3c4ccc(O)c(CN)c4CC[C@H]3[C@@H]1CC[C@@H]2O
Exam item: For the pair 1 and 2 , which member has the lower inhibition number? Respond using the label that marks the chosen record.
Marked response: 2
